assay: Quantification of drugs in plasma by LC-MS/MS; assay type: in vivo, mice; settings: Swiss Webster, mouse, plasma, oral, Mean plasma concentration of DCF, mice that received DCF or DCF + TPPU

Compound: O=C(O)Cc1ccccc1Nc1c(Cl)cccc1Cl [Diclofenac, diclofenac sodium]
concentration at 6 h [ng/mL]: 4000
